Test system: A498 renal
Experiment: NCI-60 one-dose screen, 48 h (100 = growth as untreated, 0 = no growth, -100 = all killed)
Details: 10 µM unless noted
Procedure: Growth inhibition of the A498 human tumor cell line is measured as a screen for anti-cancer activity. Cells are grown in 96 well plates and exposed to the test compound for 48 hours. Compounds are tested at a single concentration, which is 10^-5 M for most compounds. The reported endpoint is percent growth (GI% or GIPRCNT), where numbers from 0 - 100% represent growth inhibition, and numbers from -100% - 0 represent cell death. For example, a value of 40 represents 60% growth inhibition. […]
The panel holds about 83,000 compounds, 20% with a hit somewhere; the sample as a whole holds those more often.
Everything with growth lower than 20% is Not satisfied; everything else, including exactly 20%, is Satisfied.

Worked cases, answers included:
[[record]]
structure_smiles = "COc1ccc(OC)c(/C=C/C(=O)N/N=C/c2ccc(Cl)cc2)c1"
group_label = "Not satisfied"

[[record]]
structure_smiles = "O=C1CN(CCN2CC(=O)N(Cc3ccccc3)C(=O)C2)CC(=O)N1Cc1ccccc1"
group_label = "Satisfied"

[[record]]
structure_smiles = "Oc1ccc(-c2nc3ccc4[nH]ncc4c3c3c2CCCC3)c2cccnc12"
group_label = "Not satisfied"


Would you say COc1nc2ccccc2cc1-c1nc2c(cnn2-c2ccc(Br)cc2)c(=O)[nH]1 shows growth at minimum 20%?
Not satisfied

Also COc1ccc(C(=O)C[C@]2(O)C(=O)Nc3c(Cl)ccc(Cl)c32)cc1 , if possible.
Not satisfied

Now give it for Cc1ccc(S(=O)(=O)Oc2ccc(NC(=O)c3ccc(Cl)cc3)cc2)cc1 too.
Satisfied

Then BrCCCc1n(Cc2ccc3ccccc3c2)c2ccccc2[n+]1Cc1ccc2ccccc2c1 ?
Not satisfied

Same read-out for NS(=O)(=O)c1ccc(-n2nc(-c3ccc(Cl)cc3)c3ccccc3c2=O)cc1 ?
Satisfied

Also need COc1ccc2sc3c(NCCCN(C)C)nc4ccccc4c3c(=O)c2c1 , thanks.
Not satisfied

Queued: Cc1ccc2c(n1)C(=O)C(Cl)=C(Nc1ccccc1C(C)C)C2=O
Satisfied
